Where do the numbers come from? From patent US20240166754A1.

- tested_target: T1, extracellular domain of human IL12RB1 (hIL12Rb1 ECD antigen) (human, UniProt P42701 24-545)
- T1 construct: also called IL12Rβ1; CD212
- test_name: periplasmic extract ELISA on antigen-coated plate after phage biopanning
reported_metric: binding result

The cases that follow already have their binding result on record.
query: So what does the record say about binding result for hIL12Rb1_VHH17 (VHH, Camel VHH) VHH: QVQLQESGGGSVQAGGFLRLSCVASGYGYCGYDMSWYRQVPGKEREFVALITSDRSVSYEDSVKGRFSISRDNAKNTAYLEMNRLTPDDTAIYYCKTSTAARENNWCRSRYRIASWGQGTQVTVSS ?
result: binds

query: Item: hIL12Rb1_VHH18 (VHH, Camel VHH) VHH: QVQLQESGGGSVQAGGSLRLSCAASRYTYTNNFMAWFRQAPGKEREGVAAIYTGDGYAYYFDSVKGRFTISQDNDKNMLYLQMNSLKPEDTAMYYCAAMERRSGRRRMTENAEYKYWGQGTQVTVSS
result: binds

query: Next: hIL12Rb1_VHH21 (VHH, Camel VHH) VHH: QVQLQESGGGSVQAGGSLRLSCTASGYTYSSAFMAWFRQAPGKEREGVAAMYTRDGGTVYADSVKGRFTISQDNAKNTLYLQMNSLKTEDTAMYYCAAKIPQPGRASLLDSQTYDYWGQGTQVTVSS
result: binds

query: Thanks! And hIL12Rb1_VHH13 (VHH, Camel VHH) VHH: QVQLQESGGGSVQAGGFLRLSCVASGYGYCGYDMSWYRQAPGKEREFVALITSERVISYEDSVKGRFSISRDNAENTGYLEMNRLTPDDTAIYYCKTSAAARESSWCRSRYRVASWGQGTQVTVSS ?
result: binds

query: Another binder to check: hIL12Rb1_VHH20 (VHH, Camel VHH) VHH: QVQLQESGGGSVQAGGSLRLSCTASGYTYSSAFMAWFRQAPGKEREGVAAIYTRDGSPVYADSLKGRFTISQDNAKNTLHLQMNSLKPEDTAMYYCAAKIPEPGRISLLDSQTYDYWGHGTQVTVSS
result: binds

query: Next: hIL12Rb1_VHH14 (VHH, Camel VHH) VHH: QVQLQESGGGSVQAGGSLRLSCAVSGYDYCGYDVRWYRRAPGKEREFVSGIDSDGSTSYADSVKGRFTISQDNAENTSYLHMFSLKPEDTAMYYCKTESPAGESAWCRNFRGMDYWGKGTQVTVSS
result: binds

query: Next binder up: hIL12Rb1_VHH4 (VHH, Camel VHH) VHH: QVQLQESGGGSVQAGGSLRLSCVASGYGYCGYDMSWYRQTPGKEREFVALITSDRIASYEDSVKGRFIISRDNAKNTGYLDMTRVTPDDTAIYYCKTSAAARENSWCRSRYRVASWGQGTQVTVSS
result: binds

# input for lookup
query: Recorded binding result of hIL12Rb1_VHH5 (VHH, Camel VHH) VHH: QVQLQESGGGSVQAGGFLRLSCVASGYGYCGYDMSWYRQVPGKEREFVALITSDRSVSYEDSVKGRFSISRDNAKNTAYLEMNRLTPDDTAVYYCKTSTAARENNWCRSRYRIAYWGQGTQVTVSS , please.
result: binds
